study.target: recombinant human IL17a (binding to its receptor IL17R) (Homo sapiens)
Construct: 177-IR (IL17R/Fc)
Sequence (Q16552 20-155 limits assumed): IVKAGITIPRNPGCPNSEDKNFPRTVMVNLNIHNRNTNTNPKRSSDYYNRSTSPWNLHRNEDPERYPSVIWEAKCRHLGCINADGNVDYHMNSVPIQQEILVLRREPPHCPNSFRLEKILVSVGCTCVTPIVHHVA
protocol: IL-17 competition ELISA I (IL17a coated, IL17R/Fc binding)
Experimental: ELISA I: The ability of the compounds to block binding of IL17a to its receptor, IL17R, was analyzed in a competition ELISA format. High binding 96-well plates (Costar #9018) were coated with 20 nM of recombinant human IL17a (R&D Systems #317-ILB) in PBS (0.64 μg/mL), 100 μL/well, for 30 min at 37′C followed by 5 min at 4′C. […] After the sufficient color development, the reaction was fixed by the addition of 100 μL/well 0.5 N HCl and absorbance was measured at 450 nm on Biotek plate reader. […]
pIC50: −log10 of the molar value.
readout.type: pIC50

Prompt: API: value(readout=pIC50, system=recombinant human IL17a (binding to its receptor IL17R) (Homo sapiens)) for record O=C1CNC(=O)[C@@H](Cc2ccc(NC(=O)[C@H](Cc3ccccc3Cl)NC(=O)CN3CCCCC3)cc2)NC(=O)CC2(CCCC2)CC(=O)NCCCCCN1
Response: 6.00 to 7.00

Prompt: Would you mind doing CN1CCCCCNC(=O)CNC(=O)[C@@H](Cc2ccc(NC(=O)[C@H](Cc3ccccc3Cl)NC(=O)c3ccc(F)cc3)cc2)NC(=O)CC2(CCCC2)CC1=O as well?
Response: 6.00 to 7.00

Prompt: Lookup O=C1CNC(=O)[C@@H](Cc2ccc(NC(=O)[C@H](Cc3ccccc3Cl)NC(=O)Cc3ccccc3)cc2)NC(=O)CC2(CCCC2)CC(=O)N[C@@H](C(=O)O)CCCCN1
Response: > 7.00
